For each record, write down the corresponding apparent KD of MS2 coat protein.
- System: MS2 coat protein
- PROTOCOL NOTES: apparent KD of MS2 coat protein; designed switch direction (-1 OFF switch, 1 ON switch): -1; higher = weaker reporter binding
- MEASUREMENT PARAMETERS: input ligand: none
Just the number please, in nM, no unit attached.

Problem: Item under review: GCACGGAGUGUAGGAUAUCUGUGCGAUUAGCUCAGAGAAGGACACAUGAGGAUCACCCAUGUGUAACUCAACAUUAAUCCGUGC [Eli exng1 - 074] (Eterna round: R96, puzzle: Exclusion NG 1) . Reported apparent KD of MS2 coat protein?
Result: 10.6

Problem: Also UUGCGAAGAGGAUAUUUUGUCAUCAACAUGAGGAUCACCCAUGUCUUCCUUUAUGCUAUAGAAGAAGGCUUCCAGU [Eternabot (L2) Solution 63] (Eterna round: R97, puzzle: Exclusion 5) ?
Result: 37.1

Problem: Also CUAUUCCGAGGAUAUACAUGAGGAUCACCCAUGUCGGGCCUCUGCGUUUAGCGCGAAAGUAGAAGGUGGGUUUC [JL Riri mod 9] (Eterna round: R96, puzzle: Exclusion 3) ?
Result: 32

Problem: Also AUAAAUCAUGUAGGAUAUGCGUAGCGAAGCUAUGCAGAAGGACAUGAGGAUCACCCAUGUCUUUCCGUCUGCGUACAGACGGAA [Mat - Exclusion NG 1 - Mod of JL - D42] (Eterna round: R96, puzzle: Exclusion NG 1) ?
Result: 24.1

Problem: Also AAACGGCAGGGAGGAUAUGCCUACCUGGGUCGUCUUCAAACAUGAGGAUCACCCAUGUAGUCGACGCAGAAGGCCCUCAAAGCC [Ontiis] (Eterna round: R96, puzzle: Exclusion NG 2) ?
Result: 12.7

Problem: Also AAUAACAAUGUGAGGAUAUCUAGAGCUUCGGCUCUAGAGAAGGCACAUGAGGAUCACCCAUGUCUCAAUAACAA [BmEx4/2-E6] (Eterna round: R97, puzzle: Brourd's mod of Exclusion 4) ?
Result: 54.6

Problem: Also AAGAAACAUGAGGAUCACCCAUGUGAGGAUAUGAGCACGCCGGUGACGGUGAUAAGAAUCAGAAGGCACAAAGG [JL-ex1-4.34 salish99 mod] (Eterna round: R97, puzzle: Exclusion 1) ?
Result: 77.8

Problem: Also UUUAAUUGUCAGAUGGGUGACAUGAGGAUCACCCAUGUCACAAGCUUUUUGUUCGUCUUAUAAUUAACCCAUCUGAC [Stov1/11-B1] (Eterna round: R97, puzzle: Sensor, turn-off variant 1) ?
Result: 13.8

Problem: Also AGUCGAAAGACCAACAUGGACAUGAGGAUCACCCAUGUACAAGCCUUUUGCUCGUCACUAUCGUCAAAAGACGAUAG [Omei Mir Offv1 A1] (Eterna round: R97, puzzle: Sensor, turn-off variant 1) ?
Result: 32.8
